Would you kindly list protein stability index for each of these variants?
B1: ZNF263 (parent)
chain: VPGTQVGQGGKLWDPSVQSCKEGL

Variants of: B1
Assay: protein stability index of a GFP-peptide fusion (GPS, HEK-293T) (PSI 1-6); higher = more stable;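 further: lentivirally expressed fusions sorted by FACS into six bins by GFP to DsRed ratio, PSI derived from sequencing read proportions per bin multiplied by bin number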
Conditions: c terminus: a fixed tail appended
Lab note: record just the number, no unit beside it.

# return recorded protein stability index for entry VPGTAVGQGGKLWDPSVQSCKEGL [Q5A] 4

Given VPGTQVGQGGKLWDHSVQSCKEGL [P15H] , respond with its protein stability index. 4.01

Indicate the recorded protein stability index value for this variant: VPGTQVGQGGKLWDPSCQSCKEGL [V17C] 4.15

Given the variant VPGTQVGQGGHLWDPSVQSCKEGL [K11H] , write its reported protein stability index. 4.03

Item VPGTQPGQGGKLWDPSVQSCKEGL [V6P] : provide protein stability index 4.26

Look up and report measured protein stability index for this entry: VPGTQVGQGGKLWDPSVQSCKEVL [G23V] 4.6

Report measured protein stability index; entry is VFGTQVGQGGKLWDPSVQSCKEGL [P2F] 3.99

Consider the variant VPGTQVGQLGKLWDPSVQSCKEGL [G9L] and give its recorded protein stability index. 4.19

Supply measured protein stability index of VPGTQVGQVGKLWDPSVQSCKEGL [G9V] in your reply. 3.67

Look up and state reported protein stability index for VPGTQVGQGGKLWFPSVQSCKEGL [D14F] 3.07

Return reported protein stability index. Input variant: VPGTQVGQGGKLWDPSVQSCKEGK [L24K] 4.8

Read off the recorded protein stability index for VPGTQVGQGIKLWDPSVQSCKEGL [G10I] 3.53

Provide only the value of recorded protein stability index for VPGTQVGQGQKLWDPSVQSCKEGL [G10Q] 4.38

Specify measured protein stability index for VPGTQVGQGGKLWTPSVQSCKEGL [D14T] . 3.79

In one line, give reported protein stability index of the entry VPGTQVGQGGKLWDPSVQSCKEGQ [L24Q] . 5.03

Check the records and state protein stability index for VPGTQVGHGGKLWDPSVQSCKEGL [Q8H] 4.12

Answer with the recorded protein stability index of VPLTQVGQGGKLWDPSVQSCKEGL [G3L] only. 4.1

Tell me measured protein stability index for VPGTQVGQGGKLWDPSEQSCKEGL [V17E] please. 5.16

Tell me its protein stability index given VPGTQVGQGGKLWDPSVQSYKEGL [C20Y] as the entry. 3.52

Provide one value: measured protein stability index of VPGTQVGQGGKLPDPSVQSCKEGL [W13P] 4.72

Given VPGTQVGQRGKLWDPSVQSCKEGL [G9R] , respond with its protein stability index. 3.67

Answer with the recorded protein stability index for the variant listed here: VPGTQVGQGWKLWDPSVQSCKEGL [G10W] 2.45
